Experiment: Toxicity liver stage against HepG2, at 10uM
Format: cell-based
Set-up: test concentration 10 uM, cell line HepG2-A16-CD81EGFP
Conditions: human, HepG2-A16-CD81EGFP cells; read-out: INHIBITION
cytotoxicity at 10 µM reference
Output should be the measured figure followed by the unit it is expressed in.

Worked cases, answers included:
* COCc1nc(C(=O)NS(=O)(=O)c2ccc(F)cc2F)cs1 | -8.51%
* COc1cccc(-c2noc(-c3ccc(NCC(C)C)nc3)n2)c1OC | -12.2%
* CC(=O)N1CCC(NC2(Cc3cc(C(C)(C)O)on3)COC2)CC1 | -1.09%
* N#Cc1ccc(OCCN2CCNC(=O)C2c2cccs2)cc1 (configuration not stated) | -2.62%
* Cc1ncnc2c1CCN(C(=O)c1ccoc1)CC2 | 6.73%
* Cc1nc(CN(C)S(=O)(=O)c2ccccc2C(F)(F)F)no1 | -3.03%

Request the reported cytotoxicity at 10 µM associated with CCOC(=O)CSc1nnc(C(N)CC(C)C)o1 (configuration not stated) -8.32%

Also need O=S1(=O)COCCN1Cc1ccc(F)c(C(F)(F)F)c1 , thanks. 7.52%

Also need Cc1nc(NS(=O)(=O)c2ccc(F)c(Br)c2)no1 , thanks. 6.04%

Also need Cc1cn[nH]c1C1CCCCN1C(=O)CCc1ccc(F)cc1 (configuration not stated) , thanks. 1.52%

Also need CS(=O)(=O)N1CC2(CCN(Cc3ccccn3)C2)Cc2ccccc21 (configuration not stated) , thanks. 8.08%

Also need COCC(=O)N1CCc2nc(-c3cnccn3)nc(O)c2C1 , thanks. 27.7%

###

Assay: Toxicity liver stage against HepG2, at 10uM
Type: cell-based
Design: test concentration 10 uM, cell line HepG2-A16-CD81EGFP
Details: human, HepG2-A16-CD81EGFP cells; read-out: INHIBITION
parameter: cytotoxicity at 10 µM (%)
Expressed in %, but write only the number.

Worked cases, answers included:
* Cc1cc(C)c(CNC(=O)N(C)Cc2cccc(F)c2)c(=O)[nH]1 | -1.62
* CC(C)CN1C(=O)C2(CCN(Cc3ccc(F)cc3)C2)c2ccccc21 (configuration not stated) | 13
* CN(C)c1ccc(C(=O)N(Cc2ccncc2)CC2CCCO2)nn1 (configuration not stated) | 14.2
* CCn1cncc1CN1CCN(CC2(c3ccc(C)cc3)CC2)CC1 | -10.7
* O=C(N1CCOCC1)[C@@]12CCO[C@@H]1CCN(C1CCC1)C2 | 3.33

Let us move to another entry and its cytotoxicity at 10 µM.
Request the reported cytotoxicity at 10 µM associated with CC1=C(C#N)C(=O)NC(=O)/C1=C\c1c(C)[nH]n(-c2ccc(C)cc2)c1=O 1.91

###

cytotoxicity at 10 µM reference
Assay: Toxicity liver stage against HepG2, at 10uM
Assay type: cell-based
Design: test concentration 10 uM, cell line HepG2-A16-CD81EGFP
Details: human, HepG2-A16-CD81EGFP cells; read-out: INHIBITION
Output should be the measured figure followed by the unit it is expressed in.

* O=C(CN1CC(c2nc(C3CC3)no2)C1)NCc1ccc(F)cc1 | 0.291%

Request the reported cytotoxicity at 10 µM associated with COCc1cccc(C(=O)N(C)Cc2ncc(C)c(OC)c2C)c1 -13.1%

Also need CC(C(=O)NCc1ccnc(N2CCN(C)CC2)c1)S(C)(=O)=O (stereo not given) , thanks. -13.9%

Also need CC(Cn1ccnc1)NC(=O)N1CCN(Cc2ccsc2)CC1 (stereo not given) , thanks. -6.33%

Also need CCCc1nc(N2CCCN(c3ncccn3)CC2)c2cnn(C)c2n1 , thanks. -1.18%

Data origin, for the record: ChEMBL document CHEMBL4513216
